// IC50 collected for EGFR (Homo sapiens (Human), UniProt P00533)
A number alone suffices; assume nM.

* C=CC(=O)N1CCC[C@@H](c2nn(-c3ccc(Oc4cc(F)cc(F)c4F)cc3)c3cncc(F)c23)C1 (single isomer, unassigned) | 2020

Looking for the measured IC50 of C=CC(=O)N1CCC[C@@H](c2nn(-c3ccc(Oc4cc(F)ccc4F)cc3)c3cncc(F)c23)C1 , can you help?
812

----------
Biological target: TEC (Homo sapiens (Human), UniProt P42680)
Sequence (P42680 whole entry): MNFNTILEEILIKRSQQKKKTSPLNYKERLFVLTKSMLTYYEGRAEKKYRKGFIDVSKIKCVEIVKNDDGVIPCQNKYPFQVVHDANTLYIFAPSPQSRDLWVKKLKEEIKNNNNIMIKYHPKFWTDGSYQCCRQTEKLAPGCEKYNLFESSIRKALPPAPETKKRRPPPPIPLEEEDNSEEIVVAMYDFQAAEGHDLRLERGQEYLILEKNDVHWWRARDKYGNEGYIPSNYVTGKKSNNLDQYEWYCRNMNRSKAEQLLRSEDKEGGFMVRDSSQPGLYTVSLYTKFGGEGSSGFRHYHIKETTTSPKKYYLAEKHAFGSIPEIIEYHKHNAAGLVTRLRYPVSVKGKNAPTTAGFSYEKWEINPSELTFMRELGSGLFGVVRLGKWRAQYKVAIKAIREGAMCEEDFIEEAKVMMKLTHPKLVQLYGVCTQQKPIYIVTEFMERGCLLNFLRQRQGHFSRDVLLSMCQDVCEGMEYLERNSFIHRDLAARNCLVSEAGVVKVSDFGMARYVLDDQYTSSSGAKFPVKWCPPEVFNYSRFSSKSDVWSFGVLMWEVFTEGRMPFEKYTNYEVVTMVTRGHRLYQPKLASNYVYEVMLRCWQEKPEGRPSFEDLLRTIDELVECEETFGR
ENDPOINT LABEL: IC50 (nM)
A number alone suffices; assume nM.

Looking for the measured IC50 of C=CC(=O)N1CCC[C@@H](c2nn(-c3ccc(Oc4cc(F)ccc4F)cc3)c3cncc(F)c23)C1 , can you help?
43.2

----------
Molecular target: ITK (Homo sapiens (Human))
Sequence (Q08881 whole entry): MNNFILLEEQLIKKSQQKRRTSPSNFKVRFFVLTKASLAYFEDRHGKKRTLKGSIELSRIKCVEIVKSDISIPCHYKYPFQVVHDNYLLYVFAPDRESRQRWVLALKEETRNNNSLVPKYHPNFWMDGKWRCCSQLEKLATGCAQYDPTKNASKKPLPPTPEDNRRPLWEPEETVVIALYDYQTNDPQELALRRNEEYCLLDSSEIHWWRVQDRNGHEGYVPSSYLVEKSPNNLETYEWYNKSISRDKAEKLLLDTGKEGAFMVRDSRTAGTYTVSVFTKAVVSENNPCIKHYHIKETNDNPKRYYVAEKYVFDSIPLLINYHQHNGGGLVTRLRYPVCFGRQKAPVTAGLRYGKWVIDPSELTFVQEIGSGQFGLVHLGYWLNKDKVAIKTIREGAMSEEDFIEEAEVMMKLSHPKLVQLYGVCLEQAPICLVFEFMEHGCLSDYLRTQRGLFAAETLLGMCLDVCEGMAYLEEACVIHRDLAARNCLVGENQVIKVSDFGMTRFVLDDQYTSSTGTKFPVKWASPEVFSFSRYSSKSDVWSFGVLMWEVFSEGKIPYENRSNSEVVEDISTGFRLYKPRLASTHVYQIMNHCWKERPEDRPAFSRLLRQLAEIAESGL
Assay: ITK kinase test (33P-ATP filter binding)
Assay type: biochemical
Conditions: final ATP 5 μM; unit μM
ENDPOINT LABEL: IC50

Looking for the measured IC50 of C=CC(=O)N1CCC[C@@H](c2nn(-c3ccc(Oc4cc(F)cc(F)c4F)cc3)c3cncc(F)c23)C1 (single isomer, unassigned) , can you help?
> 10 µM

----------
IC50 for assorted compounds
Molecular target: BTK (Homo sapiens (Human), UniProt Q06187)
Sequence (Q06187 whole entry): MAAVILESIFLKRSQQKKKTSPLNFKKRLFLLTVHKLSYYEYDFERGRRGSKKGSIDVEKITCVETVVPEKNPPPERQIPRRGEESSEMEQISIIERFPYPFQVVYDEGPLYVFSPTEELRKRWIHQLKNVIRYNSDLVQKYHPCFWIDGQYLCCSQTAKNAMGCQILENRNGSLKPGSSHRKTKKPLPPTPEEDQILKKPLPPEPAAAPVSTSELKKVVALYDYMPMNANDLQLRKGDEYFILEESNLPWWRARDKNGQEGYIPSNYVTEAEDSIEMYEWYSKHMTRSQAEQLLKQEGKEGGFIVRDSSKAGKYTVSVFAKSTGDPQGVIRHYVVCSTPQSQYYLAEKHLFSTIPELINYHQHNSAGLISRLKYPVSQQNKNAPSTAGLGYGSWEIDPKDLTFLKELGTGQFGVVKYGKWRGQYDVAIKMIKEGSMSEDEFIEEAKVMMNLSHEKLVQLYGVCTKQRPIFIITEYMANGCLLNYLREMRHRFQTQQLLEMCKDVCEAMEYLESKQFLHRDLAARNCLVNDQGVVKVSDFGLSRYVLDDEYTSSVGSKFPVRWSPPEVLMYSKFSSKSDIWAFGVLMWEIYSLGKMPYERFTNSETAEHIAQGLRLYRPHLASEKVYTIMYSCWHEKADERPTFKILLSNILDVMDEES
Experiment: BTK kinase test (33P-ATP filter binding)
Type: biochemical
Conditions: Table 1; final ATP 5 μM, 120 minutes at room temperature
A number alone suffices; assume nM.

Solved cases (3 shown):
- C=CC(=O)N1CCO[C@@H](c2nn(-c3ccc(Oc4c(F)cccc4F)cc3)c3cncc(F)c23)C1: 9.58
- C=CC(=O)N1CCC[C@@H](c2nn(-c3ccc(Oc4cc(F)cc(F)c4F)cc3)c3cncc(F)c23)C1 (single isomer, unassigned): 11
- C=CC(=O)N1CCC[C@H](c2nn(-c3ccc(Oc4cc(F)ccc4F)cc3)c3cncc(F)c23)C1: 140

Next, consider the following compound.
Looking for the measured IC50 of C=CC(=O)N1CCC[C@@H](c2nn(-c3ccc(Oc4cc(F)ccc4F)cc3)c3cncc(F)c23)C1 , can you help?
9.58

----------
Biological target: ITK (Homo sapiens (Human))
Assay: ITK kinase test (33P-ATP filter binding)
Type: biochemical
Conditions: final ATP 5 μM, 120 minutes at room temperature
Experimental: Experimental Example 2: EGFR, ITK and TEC Kinase Test buffer conditions: 20 mM HEPES (pH 7.5), 10 mM MgCl2, 1 mM EGTA, 0.02% Brij35, 0.02 mg/mL BSA, 0.1 mm Na3VO4, 2 mm DTT, 1% DMSO. 2.1. […] 3. Data analysis: the kinase activity data is expressed as the percentage of the remaining kinase activity in a test sample compared to a reaction with a carrier (dimethyl sulfoxide), and IC50 values and curve fitting are obtained using Prism4 software (GraphPad).
ENDPOINT LABEL: pIC50
Lab note — pIC50 values are minus log10 of concentrations in M.

Looking for the measured pIC50 of C=CC(=O)N1CCC[C@@H](c2nn(-c3ccc(Oc4cc(F)ccc4F)cc3)c3cncc(F)c23)C1 , can you help?
5.14
